System: soybean plant
ASSAY_OVERVIEW: Test Example 4: phytotoxicity to upland crop plants, treatment after emergence
Format: in vivo
EXPERIMENTAL_PARAMETERS: dosage 5 kg/ha, sprayed after emergence, judged 14 days after treatment
MEASURED_METRIC: Phytotoxicity So

Below: 2 compounds and their reported Phytotoxicity So.
CCNC(=O)c1nc2ccn(OC)c2cc1C(=O)Nc1c(CC)ccc(Cl)c1CC 4 (Crop-killing rate is 90-99%.)
CCCNC(=O)c1nc2ccc(OC)cc2cc1C(=O)Nc1c(CC)ccc(Cl)c1CC 2 (Crop-killing rate is 40-69%.)

Prompt: Consider the compound shown here: `CCCNC(=O)c1nc2ccccc2nc1C(=O)Nc1cccc(Cl)c1C` What is its recorded Phytotoxicity So?
Completion: 3 (Crop-killing rate is 70-89%.)

Prompt: Consider the compound shown here: `CCc1ccc(Cl)c(CC)c1NC(=O)c1cc2ccccc2nc1C(=O)NC` What is its recorded Phytotoxicity So?
Completion: 3 (Crop-killing rate is 70-89%.)

Prompt: Consider the compound shown here: `CCCNC(=O)c1nc2occc2cc1C(=O)Nc1c(CC)ccc(Cl)c1CC` What is its recorded Phytotoxicity So?
Completion: 5 (Crop-killing rate is 100%.)

Prompt: Consider the compound shown here: `CCc1ccc(Cl)c(CC)c1NC(=O)c1cc2ccccc2nc1C(=O)NC1CCCC1` What is its recorded Phytotoxicity So?
Completion: 3 (Crop-killing rate is 70-89%.)

Prompt: Consider the compound shown here: `CCNC(=O)c1nc2ccccc2nc1C(=O)Nc1c(CC)ccc(Cl)c1CC` What is its recorded Phytotoxicity So?
Completion: 5 (Crop-killing rate is 100%.)

Prompt: Consider the compound shown here: `CCCNC(=O)c1nc2ccsc2cc1C(=O)Nc1c(CC)ccc(Cl)c1CC` What is its recorded Phytotoxicity So?
Completion: 4 (Crop-killing rate is 90-99%.)

Prompt: Consider the compound shown here: `CCCNC(=O)c1nc2c(cc1C(=O)Nc1c(CC)ccc(Cl)c1CC)CCCO2` What is its recorded Phytotoxicity So?
Completion: 4 (Crop-killing rate is 90-99%.)

Prompt: Consider the compound shown here: `CCCNC(=O)c1nc2nc(C)n(C)c2cc1C(=O)Nc1c(CC)ccc(Cl)c1CC` What is its recorded Phytotoxicity So?
Completion: 5 (Crop-killing rate is 100%.)

meta.source: patent US6444617B1
